Experiment: soluble on expression in E. coli; label from the status in PepcDB or PDB records
measured_parameter: soluble on expression in E. coli

// query May I ask what soluble on expression in E. coli has been recorded for MGSDKIHHHHHHMAQLVAIDNKNHLNLKVDAAKAELHGAGLHLVPAVMAEFTSMAVQYPLVITKNADTGQFVVAAMLGFESGENLFWRGGQWQGLYLPLQIRRQPFFVGNPEQNSEQKVAGDYVVCFDSESPAIVSNDGQALFSEDGVDTEYFQQAKYCLAQLLEGELANKKLLEQLQSMELLQVMQMEVTFANQQSTTLNGLYTIDTEKLAALSAEKIASLHKAGLLQAIYTLITSLGQIHHLIDLKNKQLGC ?
// result not soluble

// query Recorded soluble on expression in E. coli of MGSDKIHHHHHHMMFVHIADNHLGYRQYNLDDREKDIYDSFKLCIKKILEIKPDVVLHSGDLFNDLRPPVKALRIAMQAFKKLHENNIKVYIVAGNHEMPRRLGEESPLALLKDYVKILDGKDVINVNGEEIFICGTYYHKKSKREEMLDKLKNFESEAKNYKKKILMLHQGINPYIPLDYELEHFDLPKFSYYALGHIHKRILERFNDGILAYSGSTEIIYRNEYEDYKKEGKGFYLVDFSGNDLDISDIEKIDIECREFVEVNIKDKKSFNEAVNKIERCKNKPVVFGKIKREFKPWFDTLKDKILINKAIIVDDEFIDMPDNVDIESLNIKELLVDYANRQGIDGDLVLSLYKALLNNENWKELLDEYYNTKFRG , please.
// result not soluble

---

Test: soluble on expression in E. coli; label from the status in PepcDB or PDB records
measured_parameter: soluble on expression in E. coli

Worked examples follow.
// query Would you mind telling me what soluble on expression in E. coli value was observed for MSLNSQEMVLGNAWLVLADRVIEHGWVAIADGVIAEVGEGDAPNGAKDMHGDLVMPGLVELHTDHLEAHYTPRPKVQWNPVAAVVSYDGQLATCGITTVLDSLRVWREEGAEEVDGQAIVLAGAISTARDAQLLRADHFLHLRCEIPMPNVVAEAKELIDRPDIRLMSLMDHTPGQRQFRDEEKLRDYYRGKGAGMTDAELDVMFARRVYCKENYADANMRAIVELAHRYEIPLASHDDTTPENVADAIRDRVAVAEFPTTLEAARELHQAGIDILMGAPNVVRGGSHSGNIAAIDLAHEGLLDILSSDYIPSSLLIAALQLPMRAPGIDLAAAIRTVTKAPAEAVGLNDRGEISKGKRADLIRVHVAHDVPAVRSVWREGQRVAEGHHHHHH ?
// result not soluble

// query I would be grateful if you could share the reported soluble on expression in E. coli for SLGNSYAGQLKTTRFEEVLHNSIEASLRSNNLVPRPIFSQLYLEAEQQLAALEGGSRVDNEEEEEEGEGGLETNGPPNPFQLHPLPEGCCTTDGFCQAGKDLRLVSISNEPMDVPAGFLLVGVKSPSLPDHLLVCAVDKRFLPDDNGHNALLGFSGNCVGCGKKGFCYFTEFSNHINLKLTTQPKKQKHLKYYLVRNAQGTLTKGPLICWKGSEFRSRQIPASTCSSSLFPALESTAAFPSEPVPGTNPSILMGAQQAGPASDHPSLNAAMGPAVFNGKDSPKCQQLAKNNLLALPRPSALGILSNSGPPKKRHKGWSPESEG .
// result soluble

// query Consider the sequence shown here: MIRKALLFVEKNETWKKELQIAKSVETVRKRLGQSNLNACSPRKVPLLTVKHVAKQFEYDKIHKDGPVEKWRNIFWSDESKIVLLGGKGSRSYVRRPPRTEYNPRYTFKKFKNCLKGWAFCCLEHHHHHHH What is its recorded soluble on expression in E. coli?
// result not soluble

// query What soluble on expression in E. coli value was documented for this sequence, GPGSMTDFPKLNRIKSDDENMEKIHVAARKGQTDEVRRLIETGVSPTIQNRFGCTALHLACKFGCVDTAKYLASVGEVHSLWHGQKPIHLAVMANKTDLVVALVEGAKERGQMPESLLNECDEREVNEIGSHVKHCKGQTALHWCVGLGPEYLEMIKILVQLGASPTAKDKADETPLMRAMEFRNREALDLMMDTVPSKSSLRLDYANKQGNSHLHWAILINWEDVAMRFVEMGIDVNMEDNEHTVPLYLSVRAAMVLLTKELLQKTDVFLIQACPYHNGTTVLPDRVVWLDFVPAAADPSKQEVLQLLQEKLDEVVRSLNTGAGGAVKRKKKAAPAVKRMKLAPSAPVRTRSRSRARSSAVSK ?
// result soluble

// query Record request: soluble on expression in E. coli value, item MGSDKIHHHHHHTEETAKVVPMAVITPAINQLTDQEKAEGWALLFDGKTTKGWRGAHKDAFPDHGWMVKDGELIVQKSDGSESTNGGDIVTEGEYSAFEFSVDFKITEGANSGIKYFVTEQEKQKGSAYGLEFQLLDDAKHPDAKLYTTFPGSRTLGSLYDLKKSENIHFNGVGEWNTAVVKVFPNNHVEHWLNGVKVLEYERGSKEFRDLVKGSKYADPSYNAGGAFGEAPKGHILLQDHGDEVAFRNIKVKELK
// result not soluble

---
// query I have this sequence here, MGSDKIHHHHHHMNNKIYFTPGPSELYPTVRQHMITALDEKIGVISHRSKKFEEVYKTASDNLKTLLELPSNYEVLFLASATEIWERIIQNCVEKKSFHCVNGSFSKRFYEFAGELGREAYKEEAAFGKGFYPADITVPADAEIICLTHNETSSGVSMPVEDINTFRDKNKDALIFVDAVSSLPYPKFDWTKIDSVFFSVQKCFGLPAGLGVWILNDRVIEKSKALLAKRKSIGTYHTIPSMLEKARVNQTPETPNAMNIFLLGKVTGDMLQISADGIRKQTEEKAALINTYIESSKVFSFGVEDAKLRSMTTIVANTTMLPGEINKILEPFDMAVGAGYGSKKETQIRIANFPAHSLEQVHKLVQTLKEKIG , and I need its recorded soluble on expression in E. coli.
// result not soluble

// query Which value of soluble on expression in E. coli has been reported for MANVLCNRARLVSYLPGFCSLVKRVVNPKAFSTAGSSGSDESHVAAAPPDICSRTVWPDETMGPFGPQDQRFQLPGNIGFDCHLNGTASQKKSLVHKTLPDVLAEPLSSERHEFVMAQYVNEFQGNDAPVEQEINSAETYFESARVECAIQTCPELLRKDFESLFPEVANGQTNDSDWLEHHHHHH in the records?
// result soluble
